Recorded values, source the array DNA melting data of Ke et al. (doi:10.1101/2024.01.08.574731).

Listing of recorded folding enthalpy by entry.
# TEST SUMMARY: folding enthalpy; higher = less favourable; fluorescence melt of hairpins on a sequencing array, two-state fit
# REPORTED CONDITIONS: sodium 0.088 M
Return type: number; implicit unit kcal/mol.

Recorded folding enthalpy, per entry:
ORDERED RESIDUES	UNIT LABEL	QUANTITATIVE READOUT
GAATACGAAAGTATTTC ((((((....))).)))	kcal/mol	-15.8
GGTGGCGGAAACACCACC (((((.(....).)))))	kcal/mol	-42.3
GTCTTCCGAAAGGATGAC (((.(((....))).)))	kcal/mol	-42.4

// fetch folding enthalpy given entry GATCATGGAAATGATC ((((((....)))))) -36

// fetch folding enthalpy given entry GGTTAGCGAAAGCTTACC (((.(((....))).))) -23.2

// fetch folding enthalpy given entry GCACATGGAAACATATGC (((.(((....))).))) -26

// fetch folding enthalpy given entry CGTTCGGAAACGACTACG ((((((....)))..))) -12.6

// fetch folding enthalpy given entry GGCGCCGAAAGGCACGCC ((((((....)))..))) -15.7

====

# TEST SUMMARY: melting temperature; fluorescence melt of hairpins on a sequencing array, two-state fit, raised by 9.35 °C to match UV melts
# REPORTED CONDITIONS: sodium 0.088 M
Listing of recorded Tm by entry.
Return type: number; implicit unit °C.

Recorded Tm, per entry:
ORDERED RESIDUES	Tm [°C]
GTCAGACCGAAAGGTGAC (((..(((....))))))	44.4
GCGAACGAAAGTTGACGC ((((((....)))..)))	44.1
GTGATGGGAAACTATCGC (.(((.(....).))).)	35.2
GATCTGACGCCAGATC ((((((....))))))	48.6
GCGATGCGAAAGCCGCGC (((..((....))..)))	64.7

// fetch Tm given entry GCGCACGAAAGTGCCGC ((((((....))).))) 62

// fetch Tm given entry GGTGATGGAAACATCGCC ((.((((....)))).)) 55.6

// fetch Tm given entry CGGCCACGGAAACGTCCG (((..(((....)))))) 33.6

// fetch Tm given entry GCCATCGAAAGATACGGC ((((((....)))..))) 41.5

// fetch Tm given entry GATCTGGAGGCAGATC ((((((....)))))) 48.1

// fetch Tm given entry GATCGGGCACCCGATC ((((((....)))))) 64.6

// fetch Tm given entry GATATGGGAAACCACATC (((.(((....))).))) 28.4

// fetch Tm given entry GCTCAGCGAAAGCTTAGC (((.(((....))).))) 49.4

// fetch Tm given entry GCACGGCGAAAGCCTCGC ((..(((....)))..)) 42

// fetch Tm given entry GTGACCGAAAGGTGCAC ((((((....))).))) 49.4

// fetch Tm given entry GCTGTGCGAAAGCAAAGC (((.(((....))).))) 55.7

// fetch Tm given entry GCAGCGCGAAAGCATTGC (((..((....))..))) 40.9

// fetch Tm given entry CGTCCGGAAACGGCTACG ((((((....)))..))) 34

// fetch Tm given entry GGATGTGGAAACGTATCC ((((..(....)..)))) 35.1

// fetch Tm given entry GCGAGTGCGAAAGCACGC (((..(((....)))))) 59

// fetch Tm given entry GGCGTTGGAAACAGCGCC ((((.((....)).)))) 60.9

// fetch Tm given entry GTATCTGGAAACGGATAC (((((.(....).))))) 44.8

// fetch Tm given entry CGACCGGAAACGGCGTCG ((((((....)))..))) 50.2

// fetch Tm given entry GGTTCCGGAAACGGGATC (.(.(((....))).).) 39.9

// fetch Tm given entry GCTTCCGGAAACGGGAGC (((.(((....))).))) 59.5

// fetch Tm given entry GACTGCGGAAACGTAGTC ((((.((....)).)))) 52.6

// fetch Tm given entry GCCTCCGAAAGGATAGGC ((((((....)))..))) 53.2

====

Listing of recorded Tm by entry.
# TEST SUMMARY: melting temperature; fluorescence melt of hairpins on a sequencing array, two-state fit, raised by 9.35 °C to match UV melts
# REPORTED CONDITIONS: sodium 0.088 M
Return type: number; implicit unit °C.

Recorded Tm, per entry:
ORDERED RESIDUES	UNIT LABEL	QUANTITATIVE READOUT
GCAACGCGAAAGCGTAGC ((.((((....)))).))	°C	61.9
GATCGATAATCGATC ((((((...))))))	°C	49.5
GACCTTGAAAAAGGTC ((((((....))))))	°C	56.8
GCTCCGACGAAAGTCAGC (((..(((....))))))	°C	32.2
CGCACGGAAACGTATGCG ((((((....)))..)))	°C	46.7
GCGCACGAAAGTGTCCGC ((((((....)))..)))	°C	48
GCCAGGCGAAAGCCGAGC ((..(((....)))..))	°C	52.2
GATCGGTCATCCGATC ((((((....))))))	°C	59.4
GATCTTCAGAAAGATC ((((((....))))))	°C	41.7
GATCGTGGTCACGATC ((((((....))))))	°C	57.7

// fetch Tm given entry GTGTCCGGAAACAGACAC (((((.(....).))))) 44.9

// fetch Tm given entry GATCATAGCCATGATC ((((((....)))))) 47.5

====

# TEST SUMMARY: folding enthalpy; higher = less favourable; fluorescence melt of hairpins on a sequencing array, two-state fit
# REPORTED CONDITIONS: sodium 0.088 M
Returns one of True or False; True when folding enthalpy is >= -20 kcal/mol.

Solved cases below.
ORDERED RESIDUES	GROUP LABEL
GTCCTCGGAAACGAGAAC ((.((((....)))).))	False
GGCTGAGGAAACTCGGCC (((.(((....))).)))	False
GATTCCGAAAGGAGAATC ((((((....)))..)))	True
GGCGGCGAAAGCCCAGCC ((((((....)))..)))	True
GGTTCCCCGAAAGGGACC (((..(((....))))))	True
CGACAGAAATGTCG (((((....)))))	False
GATCATTGAGATGATC ((((((....))))))	False
GATCCAAATTGGATC ((((((...))))))	False
GCAGATGGAAACGTTTGC (((.(.(....).).)))	True
GCCCTCGAAAGAGAGGC ((((((....))).)))	False

As a next step, examine the sequence that follows.
Form field: folding enthalpy at least -20 kcal/mol? Entry: GGACCCGAAAGGGCGTCC ((((((....)))..))) True

====

# TEST SUMMARY: melting temperature; fluorescence melt of hairpins on a sequencing array, two-state fit, raised by 9.35 °C to match UV melts
# REPORTED CONDITIONS: sodium 0.088 M
Listing of recorded Tm by entry.
Return type: number; implicit unit °C.

Recorded Tm, per entry:
ORDERED RESIDUES	UNIT LABEL	Tm
GATCACCGGAGTGATC ((((((....))))))	°C	57.7
GCCTATGGAAACATGGGC (((.(((....))).)))	°C	51.7
GTCATGGGAAACCATGGC (.(((((....))))).)	°C	53.2

// fetch Tm given entry GATATACCGAAAGGTATC (((..(((....)))))) 32.8

====

# TEST SUMMARY: folding enthalpy; higher = less favourable; fluorescence melt of hairpins on a sequencing array, two-state fit
# REPORTED CONDITIONS: sodium 0.088 M
Returns one of 1 or -1; 1 when folding enthalpy is >= -30 kcal/mol.

Solved cases below.
ORDERED RESIDUES	GROUP LABEL
GCTTTGGCGAAAGCCAGC (((..(((....))))))	1
GTTTCCGAAAGGACAAC ((((((....))).)))	1
GTCTCGGGAAACCGAGGC (.(((((....))))).)	1
GTAGAGGGAAACCTCCAC ((.((((....)))).))	1
GATCGTTATTACGATC ((((((....))))))	-1

As a next step, examine the sequence that follows.
Form field: folding enthalpy at least -30 kcal/mol? Entry: GACCGTGAAAACGGTC ((((((....)))))) -1
